Entries annotated with measured pKd
- Assayed system: T1, Recombinant human OX40-His protein (human, UniProt P43489 29-214, limits assumed)
- T1 construct: Recombinant antigen protein; also called recombinant human OX-40 protein; human OX-40 protein; not shown: His tag
- T1 sequence (looked up): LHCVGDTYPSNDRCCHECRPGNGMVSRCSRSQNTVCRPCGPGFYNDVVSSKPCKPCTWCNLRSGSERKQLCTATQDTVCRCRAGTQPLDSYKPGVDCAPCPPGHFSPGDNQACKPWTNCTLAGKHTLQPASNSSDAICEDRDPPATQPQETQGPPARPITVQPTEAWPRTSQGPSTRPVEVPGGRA
- Assay summary: SPR (Biacore 8K), OX40-HIS coupled to chip, antibody as analyte, 1:1 binding model
pKd: −log10 of the molar value.
Assay metric: pKd

Binder	Result
AH02923 humanized anti-human OX40 monoclonal antibody (recombinant human IgG1/kappa) (antibody, V domains shown) VH: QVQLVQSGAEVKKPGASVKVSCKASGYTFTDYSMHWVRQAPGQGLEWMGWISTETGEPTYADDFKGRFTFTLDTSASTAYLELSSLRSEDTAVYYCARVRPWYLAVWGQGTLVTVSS VL: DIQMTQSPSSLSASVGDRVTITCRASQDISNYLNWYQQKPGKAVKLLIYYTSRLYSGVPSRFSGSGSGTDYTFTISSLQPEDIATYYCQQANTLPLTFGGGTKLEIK	8.67
AH02925 humanized anti-human OX40 monoclonal antibody (recombinant human IgG1/kappa) (antibody, V domains shown) VH: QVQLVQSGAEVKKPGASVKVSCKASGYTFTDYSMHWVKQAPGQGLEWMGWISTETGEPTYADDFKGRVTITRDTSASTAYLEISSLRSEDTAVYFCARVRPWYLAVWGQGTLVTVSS VL: DIQMTQSPSSLSASVGDRVTITCRASQDISNYLNWYQQKPGKAVKLLIYYTSRLYSGVPSRFSGSGSGTDFTLTISSLQPEDIATYYCQQANTLPLTFGGGTKLEIK	8.65
AH02906 humanized anti-human OX40 monoclonal antibody (recombinant human IgG1/kappa) (antibody, V domains shown) VH: QVQLVQSGAEVKKPGASVKVSCKASGYTFTDYSMHWVKQAPGQGLEWMGWISTETGEPTYADDFKGRFTITLDTSASTAYMELSSLRSEDTAVYYCARVRPWYLAVWGQGTLVTVSS VL: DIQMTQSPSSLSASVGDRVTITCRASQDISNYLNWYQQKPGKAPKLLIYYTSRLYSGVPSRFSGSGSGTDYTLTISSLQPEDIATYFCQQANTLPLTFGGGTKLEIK	8.55
AH02922 humanized anti-human OX40 monoclonal antibody (recombinant human IgG1/kappa) (antibody, V domains shown) VH: QVQLVQSGAEVKKPGASVKISCKASGYTFTDYSMHWVRQAPGQRLEWMGWISTETGEPTYADDFKGRVTITRDTSASTAYMELSSLRSEDTAVYYCARVRPWYLVVWGQGTLVTVSS VL: DIQMTQSPSSLSASVGDRVTITCRASQDISNYLNWYQQKPGKAPKLLIYYTSRLYSGVPSRFSGSGSGTDYTLTISSLQPEDIATYYCQQANTLPLTFGGGTKLEIK	8.87
AH02915 humanized anti-human OX40 monoclonal antibody (recombinant human IgG1/kappa) (antibody, V domains shown) VH: QVQLVQSGAEVKKPGASVKVSCKASGYTFTDYSMHWVKQAPGQGLEWMGWISTETGEPTYADDFKGRVTITLDTSASTAYLEISSLRSEDTAVYYCARVRPWYLAVWGQGTLVTVSS VL: DIQMTQSPSSLSASVGDRVTITCRASQDISNYLNWYQQKPGKAPKLLIYYTSRLYSGVPSRFSGSGSGTDFTLTISSLQPEDIATYFCQQANTLPLTFGGGTKLEIK	8.52
